Target: EpCAM (human (breast and colon cancer cell lines)) (UniProt P16422)
Sequence: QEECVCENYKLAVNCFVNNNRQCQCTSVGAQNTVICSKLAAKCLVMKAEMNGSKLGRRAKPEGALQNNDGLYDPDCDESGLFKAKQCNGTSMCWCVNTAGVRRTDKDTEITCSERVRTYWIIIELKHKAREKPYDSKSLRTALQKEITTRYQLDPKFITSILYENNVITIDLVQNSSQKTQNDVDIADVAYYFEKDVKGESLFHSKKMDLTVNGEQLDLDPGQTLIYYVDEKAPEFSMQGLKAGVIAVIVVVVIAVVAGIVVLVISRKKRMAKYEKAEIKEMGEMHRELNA
Test: cell binding (method not given)
Conditions: 2'-fluoropyrimidine (Methods: 2'-fluoropyrimidine or 2'-O-methyl-pyrimidine bases); 3' inverted dT; FFPE staining: PBS, 5 mM MgCl2, 0.1 mg/mL tRNA, 1 mg/mL BSA, 10% dextran sulphate, 500 ug/mL heparin, 100 nM aptamer, 15 min, 37 C; flow cytometry: 100 nM …
measurementType: Kd (µM)
Provide only the numeric value, understood in µM.

Quick check: Kd of ACGUAUCCCUUUUCGCGUA [Ep23] ?
0.037

Hey, just so you know, these numbers are from paper PMC3584034.
